// reported kinact per item
target: Akt1 (Homo sapiens, UniProt P31749); assay: PhosphoSens continuous fluorometric kinetic enzyme assay; details: read-out: kinact Akt1
Sequence (P31749 whole entry): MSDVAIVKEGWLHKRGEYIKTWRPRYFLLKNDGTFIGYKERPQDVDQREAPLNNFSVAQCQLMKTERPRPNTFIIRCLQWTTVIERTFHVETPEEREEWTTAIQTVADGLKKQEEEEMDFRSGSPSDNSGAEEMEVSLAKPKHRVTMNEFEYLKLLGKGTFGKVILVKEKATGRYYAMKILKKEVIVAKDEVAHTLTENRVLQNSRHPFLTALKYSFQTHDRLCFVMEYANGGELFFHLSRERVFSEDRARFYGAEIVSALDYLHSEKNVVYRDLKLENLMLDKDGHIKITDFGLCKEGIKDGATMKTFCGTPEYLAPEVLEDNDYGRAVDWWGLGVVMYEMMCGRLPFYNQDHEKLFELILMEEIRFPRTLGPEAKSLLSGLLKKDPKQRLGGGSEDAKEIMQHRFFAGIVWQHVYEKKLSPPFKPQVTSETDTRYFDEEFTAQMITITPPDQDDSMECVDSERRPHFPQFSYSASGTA

- molecule smiles: "C=CC(=O)Nc1ccc2[nH]c(=O)n(C3CCN(Cc4ccc(-c5ncc(C(=O)Nc6cccnc6)cc5-c5ccccc5)cc4)CC3)c2c1"
  kinact [s⁻¹]: 0.000233
- molecule smiles: "C=CC(=O)Nc1ccc2[nH]c(=O)n(C3CCN(Cc4ccc(-c5ncccc5-c5ccccc5)cc4)CC3)c2c1"
  kinact [s⁻¹]: 0.0002
- molecule smiles: "C=CC(=O)Nc1ccc2[nH]c(=O)n(C3CCN(Cc4ccc(-c5ncc(C(=O)Nc6cnn(C)c6)cc5-c5ccccc5)cc4)CC3)c2c1"
  kinact [s⁻¹]: 0.000233
- molecule smiles: "C=CC(=O)Nc1ccc2[nH]c(=O)n(C3CCN(Cc4ccc(-c5ncc(C(=O)Nc6cccc(N)c6)cc5-c5ccccc5)cc4)CC3)c2c1"
  kinact [s⁻¹]: 0.000167
- molecule smiles: "C=CC(=O)Nc1ccc2[nH]c(=O)n(C3CCN(Cc4ccc(-c5ncc(Cn6ccnc6)cc5-c5ccccc5)cc4)CC3)c2c1"
  kinact [s⁻¹]: 0.0002

###

target: Akt1 (Homo sapiens); test: STK HTRF KinEASE activity-based assay (IC50); settings: biochemical activity based assay, log units
measure: Log ratio IC50 [Akt] / IC50 [Akt], Akt1 / Akt2

- molecule: "C=CC(=O)Nc1ccc2[nH]c(=O)n(C3CCN(Cc4ccc(-c5ncc(C(=O)OC)cc5-c5ccccc5)cc4)CC3)c2c1 [compound 5]"
  test result: -0.52
- molecule: "C=CC(=O)Nc1ccc2[nH]c(=O)n(C3CCN(Cc4ccc(-c5ncc(C)cc5-c5ccccc5)cc4)CC3)c2c1 [compound 2]"
  test result: -0.83
- molecule: "C=CC(=O)Nc1ccc2[nH]c(=O)n(C3CCN(Cc4ccc(-c5ncc(C(=O)N6CCCC6)cc5-c5ccccc5)cc4)CC3)c2c1 [compound 8]"
  test result: 0.34
- molecule: "C=CC(=O)Nc1ccc2[nH]c(=O)n(C3CCN(Cc4ccc(-c5ncc(C(=O)NCC(C)C)cc5-c5ccccc5)cc4)CC3)c2c1 [compound 10]"
  test result: 1.26
- molecule: "C=CC(=O)Nc1ccc2[nH]c(=O)n(C3CCN(Cc4ccc(-c5ncc(C(=O)Nc6ccccn6)cc5-c5ccccc5)cc4)CC3)c2c1 [compound 23]"
  test result: -0.07
- molecule: "C=CC(=O)Nc1ccc2[nH]c(=O)n(C3CCN(Cc4ccc(-c5ncc(CN6CCCC6)cc5-c5ccccc5)cc4)CC3)c2c1 [compound 7]"
  test result: 1.17

###

molecular target: Akt3 (Homo sapiens, UniProt Q9Y243); test: STK HTRF KinEASE activity-based assay (IC50); details: HTRF IC50 Akt3, Mean, mean of replicates
Sequence (Q9Y243 whole entry): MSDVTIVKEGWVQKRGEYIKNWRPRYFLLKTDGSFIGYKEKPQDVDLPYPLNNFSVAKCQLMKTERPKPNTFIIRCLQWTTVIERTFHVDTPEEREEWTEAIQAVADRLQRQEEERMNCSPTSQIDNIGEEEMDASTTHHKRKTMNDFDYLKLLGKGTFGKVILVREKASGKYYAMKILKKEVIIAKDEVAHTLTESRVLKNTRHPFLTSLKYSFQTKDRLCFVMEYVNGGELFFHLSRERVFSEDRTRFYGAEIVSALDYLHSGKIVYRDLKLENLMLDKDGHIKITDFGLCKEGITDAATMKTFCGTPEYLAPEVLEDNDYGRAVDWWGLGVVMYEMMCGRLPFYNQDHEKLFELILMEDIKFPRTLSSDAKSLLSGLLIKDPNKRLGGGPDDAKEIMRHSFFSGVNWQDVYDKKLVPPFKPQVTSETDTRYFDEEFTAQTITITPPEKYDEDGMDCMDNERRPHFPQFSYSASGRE
// reported IC50 per item
measure: IC50 (µM)

- molecule smiles: "C=CC(=O)Nc1ccc2[nH]c(=O)n(C3CCN(Cc4ccc(-c5ncc(CNCC(C)C)cc5-c5ccccc5)cc4)CC3)c2c1"
  measure: "IC50"
  unit text: "µM"
  test result: 8.37
- molecule smiles: "C=CC(=O)Nc1ccc2[nH]c(=O)n(C3CCN(Cc4ccc(-c5ncc(C(=O)NCC(C)C)cc5-c5ccccc5)cc4)CC3)c2c1"
  measure: "IC50"
  unit text: "µM"
  test result: 1.56
- molecule smiles: "C=CC(=O)Nc1ccc2[nH]c(=O)n(C3CCN(Cc4ccc(-c5ncc(C(=O)OC)cc5-c5ccccc5)cc4)CC3)c2c1"
  measure: "IC50"
  unit text: "µM"
  test result: 3.4
- molecule smiles: "C=CC(=O)Nc1ccc2[nH]c(=O)n(C3CCN(Cc4ccc(-c5ncc(C(=O)Nc6cccc(N)c6)cc5-c5ccccc5)cc4)CC3)c2c1"
  measure: "IC50"
  unit text: "µM"
  test result: 5.27
- molecule smiles: "C=CC(=O)Nc1ccc2[nH]c(=O)n(C3CCN(Cc4ccc(-c5ncc(Cc6ccc(N)cc6)cc5-c5ccccc5)cc4)CC3)c2c1"
  measure: "IC50"
  unit text: "µM"
  test result: 1.51

###

tested on: Ba/F3^myr-Akt2 cells; assay: CellTiter-Glo cell viability assay; details: read-out: CTG BaF3myr-Akt2, Mean; mean of replicates

- molecule smiles: "C=CC(=O)Nc1ccc2[nH]c(=O)n(C3CCN(Cc4ccc(-c5ncc(C(=O)O)cc5-c5ccccc5)cc4)CC3)c2c1"
  EC50: "> 30 µM"

###

// reported viability at 0.0001 µM per item
tested on: Ba/F3^myr-Akt1 cells; experiment: CellTiter-Glo cell viability assay; conditions: Mus musculus, read-out: cell viability, CTG, myr-Akt1, 0.1 nM, single replicates
measure: viability at 0.0001 µM (%)

- compound: "C=CC(=O)Nc1ccc2[nH]c(=O)n(C3CCN(Cc4ccc(-c5ncc(Cc6cn[nH]c6)cc5-c5ccccc5)cc4)CC3)c2c1"
  study target: "Ba/F3^myr-Akt1 cells"
  measure: "viability at 0.0001 µM"
  unit text: "%"
  test result: 100
- compound: "C=CC(=O)Nc1ccc2[nH]c(=O)n(C3CCN(Cc4ccc(-c5ncccc5-c5ccccc5)cc4)CC3)c2c1"
  study target: "Ba/F3^myr-Akt1 cells"
  measure: "viability at 0.0001 µM"
  unit text: "%"
  test result: 85.5
- compound: "C=CC(=O)Nc1ccc2[nH]c(=O)n(C3CCN(Cc4ccc(-c5nc6cc[nH]c(=O)c6cc5-c5ccccc5)cc4)CC3)c2c1 [Borussertib, reference compound]"
  study target: "Ba/F3^myr-Akt1 cells"
  measure: "viability at 0.0001 µM"
  unit text: "%"
  test result: 90
- compound: "C=CC(=O)Nc1ccc2[nH]c(=O)n(C3CCN(Cc4ccc(-c5nc(C)c(=O)[nH]c5-c5ccccc5)cc4)CC3)c2c1 [15a, reference compound]"
  study target: "Ba/F3^myr-Akt1 cells"
  measure: "viability at 0.0001 µM"
  unit text: "%"
  test result: 107
- compound: "C=CC(=O)Nc1ccc2[nH]c(=O)n(C3CCN(Cc4ccc(-c5ncc(Cc6ccc(N)nc6)cc5-c5ccccc5)cc4)CC3)c2c1"
  study target: "Ba/F3^myr-Akt1 cells"
  measure: "viability at 0.0001 µM"
  unit text: "%"
  test result: 102
- compound: "C=CC(=O)Nc1ccc2[nH]c(=O)n(C3CCN(Cc4ccc(-c5[nH]c(=O)c(CC(C)C)nc5-c5ccccc5)cc4)CC3)c2c1 [16b, reference compound]"
  study target: "Ba/F3^myr-Akt1 cells"
  measure: "viability at 0.0001 µM"
  unit text: "%"
  test result: 99

###

// reported kinact/KI per item
molecular target: Akt1 (Homo sapiens, UniProt P31749); assay: PhosphoSens continuous fluorometric kinetic enzyme assay; conditions: read-out: kinact /Ki Akt1

- compound: "C=CC(=O)Nc1ccc2[nH]c(=O)n(C3CCN(Cc4ccc(-c5ncc(Cn6ccnc6)cc5-c5ccccc5)cc4)CC3)c2c1 [compound 11]"
  kinact/KI: "26000 M⁻¹ s⁻¹"
- compound: "C=CC(=O)Nc1ccc2[nH]c(=O)n(C3CCN(Cc4ccc(-c5ncc(C(=O)Nc6cccnc6)cc5-c5ccccc5)cc4)CC3)c2c1 [compound 22]"
  kinact/KI: "26000 M⁻¹ s⁻¹"
- compound: "C=CC(=O)Nc1ccc2[nH]c(=O)n(C3CCN(Cc4ccc(-c5ncccc5-c5ccccc5)cc4)CC3)c2c1 [compound 1]"
  kinact/KI: "38000 M⁻¹ s⁻¹"
- compound: "C=CC(=O)Nc1ccc2[nH]c(=O)n(C3CCN(Cc4ccc(-c5ncc(C(=O)Nc6cccc(N)c6)cc5-c5ccccc5)cc4)CC3)c2c1 [compound 18]"
  kinact/KI: "32000 M⁻¹ s⁻¹"
- compound: "C=CC(=O)Nc1ccc2[nH]c(=O)n(C3CCN(Cc4ccc(-c5ncc(C(=O)Nc6cnn(C)c6)cc5-c5ccccc5)cc4)CC3)c2c1 [compound 13]"
  kinact/KI: "31000 M⁻¹ s⁻¹"

###

// reported EC50 per item
tested on: Ba/F3^myr-Akt1 cells; experiment: CellTiter-Glo cell viability assay; details: Mus musculus, read-out: CTG BaF3myr-Akt1, Mean, mean of replicates

- compound: "C=CC(=O)Nc1ccc2[nH]c(=O)n(C3CCN(Cc4ccc(-c5ncc(Cc6cn[nH]c6)cc5-c5ccccc5)cc4)CC3)c2c1 [compound 14]"
  comparative sign: "="
  EC50 / µM: 7.56
- compound: "NC1(c2ccc(-c3nc4ccn5c(=O)[nH]nc5c4cc3-c3ccccc3)cc2)CCC1 [MK-2206, reference compound]"
  comparative sign: "="
  EC50 / µM: 1.12
- compound: "C=CC(=O)Nc1ccc2[nH]c(=O)n(C3CCN(Cc4ccc(-c5ncc(C(=O)N6CCCC6)cc5-c5ccccc5)cc4)CC3)c2c1 [compound 8]"
  comparative sign: ">"
  EC50 / µM: 30
- compound: "C=CC(=O)Nc1ccc2[nH]c(=O)n(C3CCN(Cc4ccc(-c5nc6cc[nH]c(=O)c6cc5-c5ccccc5)cc4)CC3)c2c1 [Borussertib, reference compound]"
  comparative sign: "="
  EC50 / µM: 0.44
- compound: "C=CC(=O)Nc1ccc2[nH]c(=O)n(C3CCN(Cc4ccc(-c5ncc(CN6CCCC6)cc5-c5ccccc5)cc4)CC3)c2c1 [compound 7]"
  comparative sign: "="
  EC50 / µM: 4.71
- compound: "C=CC(=O)Nc1ccc2[nH]c(=O)n(C3CCN(Cc4ccc(-c5ncc(Cc6cccc(O)c6)cc5-c5ccccc5)cc4)CC3)c2c1 [compound 16]"
  comparative sign: ">"
  EC50 / µM: 30
